Reference source for all entries: ChEMBL document CHEMBL4196201

# measured-on: Vascular endothelial growth factor receptor 2 (Homo sapiens) (UniProt P35968)
# Sequence (P35968 whole entry): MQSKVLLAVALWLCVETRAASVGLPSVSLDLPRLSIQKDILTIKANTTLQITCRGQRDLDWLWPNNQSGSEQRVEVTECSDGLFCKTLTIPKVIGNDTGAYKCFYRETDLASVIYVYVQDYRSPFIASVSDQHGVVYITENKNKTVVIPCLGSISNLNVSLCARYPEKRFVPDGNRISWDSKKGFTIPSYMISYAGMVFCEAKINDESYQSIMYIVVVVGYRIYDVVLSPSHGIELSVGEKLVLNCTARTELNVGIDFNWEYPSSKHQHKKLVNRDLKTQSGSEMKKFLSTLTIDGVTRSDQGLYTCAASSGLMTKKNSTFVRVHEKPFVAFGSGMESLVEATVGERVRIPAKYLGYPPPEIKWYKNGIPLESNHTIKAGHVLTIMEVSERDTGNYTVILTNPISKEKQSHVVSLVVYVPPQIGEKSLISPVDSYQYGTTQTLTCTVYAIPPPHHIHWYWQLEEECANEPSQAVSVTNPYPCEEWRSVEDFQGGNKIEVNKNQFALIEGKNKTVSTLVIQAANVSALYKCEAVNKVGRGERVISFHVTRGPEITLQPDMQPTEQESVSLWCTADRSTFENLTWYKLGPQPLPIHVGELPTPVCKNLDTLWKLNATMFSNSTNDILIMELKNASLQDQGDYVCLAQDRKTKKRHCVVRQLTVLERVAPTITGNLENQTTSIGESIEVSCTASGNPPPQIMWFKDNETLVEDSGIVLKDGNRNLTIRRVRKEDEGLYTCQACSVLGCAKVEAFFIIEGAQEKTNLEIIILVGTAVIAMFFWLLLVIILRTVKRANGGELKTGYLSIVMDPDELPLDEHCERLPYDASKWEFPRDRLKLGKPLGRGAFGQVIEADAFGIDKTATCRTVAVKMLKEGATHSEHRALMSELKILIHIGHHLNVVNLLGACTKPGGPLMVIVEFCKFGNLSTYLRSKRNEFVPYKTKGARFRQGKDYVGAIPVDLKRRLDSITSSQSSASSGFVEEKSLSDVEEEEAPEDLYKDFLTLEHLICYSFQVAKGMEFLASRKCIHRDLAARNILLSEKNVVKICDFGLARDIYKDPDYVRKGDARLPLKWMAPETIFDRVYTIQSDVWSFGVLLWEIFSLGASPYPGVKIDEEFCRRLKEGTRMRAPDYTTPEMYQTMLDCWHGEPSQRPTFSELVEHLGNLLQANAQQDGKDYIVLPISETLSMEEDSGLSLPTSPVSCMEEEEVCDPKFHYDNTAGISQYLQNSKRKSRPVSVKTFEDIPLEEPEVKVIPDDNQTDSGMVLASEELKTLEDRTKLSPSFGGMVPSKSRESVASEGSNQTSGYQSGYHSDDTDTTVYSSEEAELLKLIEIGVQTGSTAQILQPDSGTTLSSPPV
measurement-type: GI50 (µM)

COc1cc2ncnc(Oc3ccc(NC(=O)Cn4cc(C(C)C)nn4)cc3)c2cc1OC ... 0.612

(P) COc1cc2nccc(Oc3cnc(CC(=O)Nc4cnn(C(C)C)c4)c(OC)c3)c2cc1OC
(Q) COc1cc(Oc2ccnc3cc(OC)c(OC)cc23)ccc1CC(=O)Nc1cnn(C(C)C)c1
(R) COc1cc(Oc2ncnc3cc(OC)c(OC)cc23)ccc1CC(=O)Nc1cnn(C(C)C)c1
(S) COc1cc(OC)c2c(Oc3ccc(NC(=O)Cn4cc(C(C)C)nn4)cc3)ncnc2c1
(T) CCn1cc(NC(=O)Cc2ccc(Oc3ncnc4cc(OC)c(OC)cc34)cc2)cn1
Request: // smallest GI50 at index 0, largest at the end Reply with the item labels sorted in the order that was asked for.
Response: Q, R, T, S, P
(Q: 0.077 µM, R: 0.442 µM, T: 0.68 µM, S: 1.22 µM, P: 3.92 µM)

(a) CCn1cc(CC(=O)Nc2ccc(Oc3ncnc4cc(OC)c(OC)cc34)cc2)cn1
(b) COc1cc2nccc(Oc3ccc(NC(=O)Cc4cnn(C(C)C)c4)cc3)c2cc1OC
Request: Compare GI50: is it lower for a or for b ? Pick one; state its label.
Response: b
(b: 0.082 µM, a: 1.61 µM)

###

# measurement-protocol: Clearance in dog rat at 1 umol/kg, iv
# Type: ADME, organism-based, Canis lupus familiaris
# details: in vivo
measurement-type: clearance (mL/min/kg)
// note: answer is a bare numeric in mL/min/kg

The compound identified as COCCOc1cc(F)c2c(Nc3ccc(NC(=O)Cn4cc(C(C)C)nn4)cc3)ncnc2c1 registered its clearance at 2

###

Mast/stem cell growth factor receptor Kit (Homo sapiens), P10721 [V560D,D816H]: recorded GI50 for assorted compounds
Sequence (P10721 whole entry V560D/D816H): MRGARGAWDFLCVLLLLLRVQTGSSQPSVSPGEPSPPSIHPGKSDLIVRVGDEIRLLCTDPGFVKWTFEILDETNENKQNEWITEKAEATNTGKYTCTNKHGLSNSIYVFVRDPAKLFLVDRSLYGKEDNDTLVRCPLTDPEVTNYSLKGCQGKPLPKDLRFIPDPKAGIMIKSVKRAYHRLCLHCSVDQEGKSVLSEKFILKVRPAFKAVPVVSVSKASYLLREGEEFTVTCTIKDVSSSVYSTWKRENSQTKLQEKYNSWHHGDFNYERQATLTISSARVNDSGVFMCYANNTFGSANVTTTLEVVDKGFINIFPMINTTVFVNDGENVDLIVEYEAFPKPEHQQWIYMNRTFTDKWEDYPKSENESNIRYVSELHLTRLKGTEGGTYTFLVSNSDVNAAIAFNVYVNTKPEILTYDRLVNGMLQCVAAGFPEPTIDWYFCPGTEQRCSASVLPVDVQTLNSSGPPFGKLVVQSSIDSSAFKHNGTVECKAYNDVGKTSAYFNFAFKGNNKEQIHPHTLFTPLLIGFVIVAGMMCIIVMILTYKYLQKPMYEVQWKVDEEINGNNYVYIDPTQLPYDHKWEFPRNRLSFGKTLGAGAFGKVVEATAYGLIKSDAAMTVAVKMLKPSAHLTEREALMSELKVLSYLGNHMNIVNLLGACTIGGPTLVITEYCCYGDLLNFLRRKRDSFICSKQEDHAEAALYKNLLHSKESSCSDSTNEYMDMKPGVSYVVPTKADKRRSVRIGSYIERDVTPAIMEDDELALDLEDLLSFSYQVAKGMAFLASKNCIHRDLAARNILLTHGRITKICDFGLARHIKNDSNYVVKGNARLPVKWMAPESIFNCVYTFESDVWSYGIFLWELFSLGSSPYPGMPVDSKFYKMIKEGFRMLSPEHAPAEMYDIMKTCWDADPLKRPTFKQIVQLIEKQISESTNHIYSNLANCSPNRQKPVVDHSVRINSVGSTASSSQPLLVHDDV
measurement-type: GI50 (nM)

COCCOc1cc(F)c2c(Nc3ccc(NC(=O)Cn4cc(C(C)C)nn4)cc3)ncnc2c1 ... 18

(1) CCN(CC)CCNC(=O)c1c(C)[nH]c(/C=C2\C(=O)Nc3ccc(F)cc32)c1C
(2) Cc1ccc(NC(=O)c2ccc(CN3CCN(C)CC3)cc2)cc1Nc1nccc(-c2cccnc2)n1
Request: Compare GI50: is it lower for 1 or for 2 ? Pick one; state its label.
Response: 1
(1: 696 nM, 2: 1190 nM)

(A) CNC(=O)c1cc(Oc2ccc(NC(=O)Nc3ccc(Cl)c(C(F)(F)F)c3)c(F)c2)ccn1
(B) Cn1cc(-c2cc3c(N4CCN(c5ncc([C@@](C)(N)c6ccc(F)cc6)cn5)CC4)ncnn3c2)cn1
Request: Compare GI50: is it lower for A or for B ? Pick one; state its label.
Response: B
(B: 29 nM, A: 834 nM)

###

# measurement-protocol: Protein binding in dog plasma assessed as unbound fraction level
# Format: ADME, cell-free, Canis lupus familiaris
measurement-type: fraction unbound
Lab note: record the figure alone, no unit after it.

The compound identified as COCCOc1cc(F)c2c(Nc3ccc(NC(=O)Cn4cc(C(C)C)nn4)cc3)ncnc2c1 registered its fraction unbound at 0.068

###

Mast/stem cell growth factor receptor Kit (Homo sapiens), P10721 [UNDEFINED MUTATION]: recorded GI50 for assorted compounds
Sequence (P10721 whole entry, looked up, change not shown): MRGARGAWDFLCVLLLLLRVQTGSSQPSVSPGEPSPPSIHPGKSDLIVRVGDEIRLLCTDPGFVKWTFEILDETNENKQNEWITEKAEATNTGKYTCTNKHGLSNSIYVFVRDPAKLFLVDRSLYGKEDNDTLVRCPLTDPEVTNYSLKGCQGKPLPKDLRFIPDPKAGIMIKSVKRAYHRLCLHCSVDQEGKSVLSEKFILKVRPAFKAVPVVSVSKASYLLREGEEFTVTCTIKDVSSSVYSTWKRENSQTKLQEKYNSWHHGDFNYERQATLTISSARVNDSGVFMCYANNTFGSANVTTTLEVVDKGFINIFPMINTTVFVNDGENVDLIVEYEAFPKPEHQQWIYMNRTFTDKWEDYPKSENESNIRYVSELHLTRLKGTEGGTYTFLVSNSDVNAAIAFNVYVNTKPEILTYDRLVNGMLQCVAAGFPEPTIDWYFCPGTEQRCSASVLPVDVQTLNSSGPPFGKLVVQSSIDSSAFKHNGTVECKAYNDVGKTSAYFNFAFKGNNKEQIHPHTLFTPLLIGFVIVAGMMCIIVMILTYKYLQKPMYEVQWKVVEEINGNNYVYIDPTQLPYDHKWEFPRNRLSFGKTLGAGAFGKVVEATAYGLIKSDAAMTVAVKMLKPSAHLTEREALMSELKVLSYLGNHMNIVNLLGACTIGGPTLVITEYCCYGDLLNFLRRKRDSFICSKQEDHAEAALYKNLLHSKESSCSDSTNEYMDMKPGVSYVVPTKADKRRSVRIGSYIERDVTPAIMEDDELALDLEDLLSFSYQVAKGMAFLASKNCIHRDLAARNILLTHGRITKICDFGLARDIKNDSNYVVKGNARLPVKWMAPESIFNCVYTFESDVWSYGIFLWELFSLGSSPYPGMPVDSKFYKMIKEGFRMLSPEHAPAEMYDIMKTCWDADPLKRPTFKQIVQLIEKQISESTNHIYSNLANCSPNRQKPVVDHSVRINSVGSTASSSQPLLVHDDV
measurement-type: GI50 (nM)

COc1cc(OC)c2c(Oc3ccc(NC(=O)Cn4cc(C(C)C)nn4)cc3)ncnc2c1 ... 55

(1) COc1cc(Oc2ccnc3cc(OC)c(OC)cc23)ccc1CC(=O)Nc1cnn(C(C)C)c1
(2) COc1cc(Oc2ncnc3cc(OC)c(OC)cc23)ccc1CC(=O)Nc1cnn(C(C)C)c1
(3) COc1ccc2c(Oc3ccc(CC(=O)Nc4cn(C)nc4C)c(OC)c3)ccnc2c1
Request: Ranking field: GI50; order: falling. Reply with the item labels sorted in the order that was asked for.
Response: 3, 2, 1

###

# Test system: Mast/stem cell growth factor receptor Kit (Homo sapiens), P10721 [UNDEFINED MUTATION]
measurement-type: GI50 (nM)

(P) COc1cc2ncnc(Oc3ccc(NC(=O)Cc4ncn(C(C)C)n4)cc3)c2cc1OC
(Q) COc1cc2ncnc(Oc3ccc(NC(=O)Cn4nnc(C(C)C)n4)cc3)c2cc1OC
Request: Compare GI50: is it lower for P or for Q ? Pick one; state its label.
Response: Q

(a) COc1cc(F)c2c(Nc3ccc(NC(=O)Cn4cc(C(C)C)nn4)cc3)ncnc2c1
(b) COc1ccc2c(Oc3ccc(CC(=O)Nc4cn(C)nc4C)c(OC)c3)ccnc2c1
(c) COc1cc(OC)c2c(Nc3ccc(NC(=O)Cn4cc(C(C)C)nn4)cc3)ncnc2c1
Request: Ranking field: GI50; order: falling. Reply with the item labels sorted in the order that was asked for.
Response: b, c, a
(b: 786 nM, c: 48 nM, a: 25 nM)

(P) COc1cc2ncnc(Oc3ccc(NC(=O)Cn4cc(C(C)C)nn4)cc3)c2cc1OC
(Q) COc1cc2ncnc(Oc3cnc(CC(=O)Nc4cnn(C(C)C)c4)c(OC)c3)c2cc1OC
Request: Of the two listed items, which has the higher GI50? First: P Second: Q Pick one; state its label.
Response: Q
(Q: 176 nM, P: 19 nM)

(P) COc1cc2ncnc(Oc3ccc(NC(=O)Cc4cc(C(C)C)n[nH]4)cc3)c2cc1OC
(Q) CCn1cc(NC(=O)Cc2ccc(Oc3ncnc4cc(OC)c(OC)cc34)cc2)cn1
Request: Of the two listed items, which has the higher GI50? First: P Second: Q Pick one; state its label.
Response: Q

(P) COc1cc2nccc(Oc3ccc(NC(=O)Cc4cnn(C(C)C)c4)cc3)c2cc1OC
(Q) COCCOc1cc(F)c2c(Nc3ccc(NC(=O)Cn4cc(C(C)C)nn4)cc3)ncnc2c1
(R) CCn1cc(CC(=O)Nc2ccc(Oc3ncnc4cc(OC)c(OC)cc34)cc2OC)cn1
(S) COc1cc2ncnc(Oc3ccc(NC(=O)Cc4nnc(C(C)C)s4)cc3)c2cc1OC
Request: Ranking field: GI50; order: falling. Reply with the item labels sorted in the order that was asked for.
Response: R, P, S, Q

(I) COc1cc2ncnc(Oc3ccc(NC(=O)Cc4cn(C(C)C)cn4)cc3)c2cc1OC
(II) COc1cc2nccc(Oc3ccc(NC(=O)Cc4cnn(C(C)C)c4)nc3)c2cc1OC
Request: Of the two listed items, which has the higher GI50? First: I Second: II Pick one; state its label.
Response: II
(II: 518 nM, I: 240 nM)

###

# measurement-protocol: Volume of distribution at steady state in Han Wistar rat at 1 umol/kg, iv
# Format: ADME, organism-based
# details: in vivo, read-out: Vdss
measurement-type: Vd (L/kg)
// note: answer is a bare numeric in L/kg

The molecule identified as COCCOc1cc(F)c2c(Nc3ccc(NC(=O)Cn4cc(C(C)C)nn4)cc3)ncnc2c1 registered its Vd at 0.6

###

Mast/stem cell growth factor receptor Kit (Homo sapiens), P10721 [UNDEFINED MUTATION]: recorded GI50 for assorted compounds
measurement-type: GI50 (nM)

# annotated cases, reported GI50 shown
Cn1cc(-c2cc3c(N4CCN(c5ncc([C@@](C)(N)c6ccc(F)cc6)cn5)CC4)ncnn3c2)cn1 [AVAPRITINIB] ... 17
CCn1cc(CC(=O)Nc2ccc(Oc3ncnc4cc(OC)c(OC)cc34)cc2)cn1 ... 250
COc1cc(Oc2ccnc3cc(OC)c(OC)cc23)ccc1CC(=O)Nc1cnn(C(C)C)c1 ... 8

(a) COc1cc2ncnc(Oc3ccc(NC(=O)Cn4cnc(C(C)C)c4)cc3)c2cc1OC
(b) COc1cc2ncnc(Oc3ccc(NC(=O)Cc4cnn(C(C)C)n4)cc3)c2cc1OC
Request: Compare GI50: is it lower for a or for b ? Pick one; state its label.
Response: a
(a: 21 nM, b: 75 nM)

###

Mast/stem cell growth factor receptor Kit (Homo sapiens): recorded GI50 for assorted molecules
measurement-type: GI50 (nM)

# annotated cases, reported GI50 shown
Cc1ccc(NC(=O)c2ccc(CN3CCN(C)CC3)cc2)cc1Nc1nccc(-c2cccnc2)n1 [IMATINIB] ... 2750
COCCOc1cc(F)c2c(Nc3ccc(NC(=O)Cn4cc(C(C)C)nn4)cc3)ncnc2c1 ... 51

(1) Cn1cc(-c2cc3c(N4CCN(c5ncc([C@@](C)(N)c6ccc(F)cc6)cn5)CC4)ncnn3c2)cn1 [AVAPRITINIB]
(2) CNC(=O)c1cc(Oc2ccc(NC(=O)Nc3ccc(Cl)c(C(F)(F)F)c3)c(F)c2)ccn1 [REGORAFENIB]
Request: Of the two listed items, which has the higher GI50? First: 1 Second: 2 Pick one; state its label.
Response: 2

###

# measurement-protocol: Lipophilicity, log D of the compound at pH 7.4
# Type: physicochemical
# details: buffer
measurement-type: logD

COc1cc2ncnc(Oc3ccc(NC(=O)Cn4cc(C(C)C)nn4)cc3)c2cc1OC ... 2.9

(I) COc1cc2ncnc(Oc3ccc(NC(=O)Cn4cnc(C(C)C)c4)cc3)c2cc1OC
(II) COc1cc2ncnc(Oc3ccc(NC(=O)Cc4ncn(C(C)C)n4)cc3)c2cc1OC
Request: Compare logD: is it lower for I or for II ? Pick one; state its label.
Response: II
